# assay.target: T1, Hse1, P38753
# T1 sequence (P38753 208-285, looked up): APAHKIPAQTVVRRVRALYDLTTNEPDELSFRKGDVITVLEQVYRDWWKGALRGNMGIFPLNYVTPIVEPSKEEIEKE
# experiment: SPOT array
# assay.conditions: median of control spots 1727
reported.endpoint: SPOT intensity
Kindly provide the number alone.

Consider the following illustrative entries.
1) GPPPPLPPPLFPSSS :: 0
2) SKIRPTPRKPSRMAT :: 19
3) GDHPKGPPPPPPPPD :: 0

Record NFKRLLPRDPSEKSS . Reported SPOT intensity: 72

Record DTFLPPPPPPPSNFE . Reported SPOT intensity: 0

Record KDKKTKPTPPPKPSH . Reported SPOT intensity: 2

Record PELAPKREAPKPPAN . Reported SPOT intensity: 0

Record RLSFFFPLDPAYIRN . Reported SPOT intensity: 91

Record AHFQPQRTAPKPPIS . Reported SPOT intensity: 0

Record SRSKPLPLTPNSKYN . Reported SPOT intensity: 1

Record KRKRRLPVSEDTNTK . Reported SPOT intensity: 4

Record DLPLPDLPPEPPTEL . Reported SPOT intensity: 0

Record GSKSGPPPRPKKPST . Reported SPOT intensity: 38

Record NSVPIMPTLPPRPYI . Reported SPOT intensity: 368
